target: RSV F protein of RS virus subtype A strains (A2, X and 2006-1); test: cell-based or functional assay
Readings of IC50 values (ng/ml), RS virus neutralization, HEp2 cells, subtype A for the listed binders
REPORTED METRIC: IC50 values (ng/ml), RS virus neutralization, HEp2 cells, subtype A (ng/mL)

# BINDER, VAL
rows = [
    ("D25 (B63D10-D25), monoclonal antibody from the B cell line (culture supernatant or purified from it) (antibody, V domains shown) VH: QVQLVQSGAEVKKPGSSVMVSCQASGGPLRNYIINWLRQAPGQGPEWMGGIIPVLGTVHYAPKFQGRVTITADESTDTAYIHLISLRSEDTAMYYCATETALVVSTTYLPHYFDNWGQGTLVTVSS VL: DIQMTQSPSSLSAAVGDRVTITCQASQDIVNYLNWYQQKPGKAPKLLIYVASNLETGVPSRFSGSGSGTDFSLTISSLQPEDVATYYCQQYDNLPLTFGGGTKVEIKRTV", 3.3),
    ("AM14 (antibody, V domains shown) VH: EVQLVESGGGVVQPGRSLRLSCAASGFSFSHYAMHWVRQAPGKGLEWVAVISYDGENTYYADSVKGRFSISRDNSKNTVSLQMNSLRPEDTALYYCARDRIVDDYYYYGMDVWGQGATVTVSS VL: DIQMTQSPSSLSASVGDRVTITCQASQDIKKYLNWYHQKPGKVPELLMHDASNLETGVPSRFSGRGSGTDFTLTISSLQPEDIGTYYCQQYDNLPPLTFGGGTKVEIKRTV", 21.5),
    ("AM23 (antibody, V domains shown) VH: EVQLVESGGNVVKPGTSLRLSCAATGFNFHNYGMNWVRQAPGKGLEWVAVVWYDGSKKYYADSVTGRFAISRDNSKNTLYLQMNSLRVEDTAVYYCVRDKVGPTPYFDSWGQGTLVTVSS VL: SYVLTQPPSVSLAPGGTAAITCGRNNIGSETVHWYQQKPGQAPVLVVYDDDDRPSGIPERFSGSNSGNTATLTISRVEAGDEADYYCQVWDRSNYHQVFGGGTKLTV", 25),
    ("AM16 (antibody, V domains shown) VH: EVQLVETGGGLAQPGGSLRLSCAASGFTFSSYNMNWVRQAPGKGLEWVSHISAGSSYIYYSDSVKGRFTVSRDNVRNSVYLQMNSLRAADTAVYYCAREDYGPGNYYSPNWFDPWGQGTLVTVSS VL: QSVVTQPPSVSGAPGQRVTISCTGSSSNIGAGYDVHWYQQLPGTAPKLLIYGNTNRPSGVSDRFSGSKSGTSASLAITGLQAEDEADYYCHSYDRSLSGSVFGGGTKLTV", 286),
    ("recombinant purified D25 (rD25), expressed in 293T cells (antibody, V domains shown) VH: QVQLVQSGAEVKKPGSSVMVSCQASGGPLRNYIINWLRQAPGQGPEWMGGIIPVLGTVHYAPKFQGRVTITADESTDTAYIHLISLRSEDTAMYYCATETALVVSTTYLPHYFDNWGQGTLVTVSS VL: DIQMTQSPSSLSAAVGDRVTITCQASQDIVNYLNWYQQKPGKAPKLLIYVASNLETGVPSRFSGSGSGTDFSLTISSLQPEDVATYYCQQYDNLPLTFGGGTKVEIKRTV", 2.1),
]

Values were extracted from patent US20160244509A1.
